Experiment: Cytotoxicity against human MCF7 cells assessed as reduction in cell viability after 72 hrs by MTT assay
Format: functional, cell-based
Details: MCF7, 72 h
recorded metric: IC50 (µM)
Quick reminder: number only, in µM, skip the unit.

In [3]: df
Out[3]:
                              smiles_record  unit_text  obs_value
0  Cc1cc(C)n(-c2nnc3nnc(-c4ccc([N+](=O)[O-])cc4)n3n2)n1         µM       6.85
1  COc1ccc(-c2nnc3nnc(-n4nc(C)cc4C)nn23)cc1         µM       16.7
2    Cc1cc(C)n(-c2nnc3nnc(-c4ccccc4)n3n2)n1         µM       13.7

Task item: Quick one: IC50 for CC(C)c1nnc2nnc(N3CCCC3)nn12 ?
Reply: 46.8

Task item: I'd like to know its IC50. The compound in question is Clc1ccc(-c2nnc3nnc(N4CCOCC4)nn23)cc1
Reply: 13.1

Task item: Would you mind telling me what IC50 value was observed for Clc1ccc(-c2nnc3nnc(N4CCOCC4)nn23)c(Cl)c1 ?
Reply: 19.3

Task item: Given the entry Clc1ccccc1-c1nnc2nnc(N3CCOCC3)nn12 , report its measured IC50.
Reply: 14.9

Task item: Look at this compound and give its reported IC50. Cc1cc(C)n(-c2nnc3nnc(C(C)(C)C)n3n2)n1
Reply: 17.6
